These data points were gathered from PubChem BioAssay (NCI).

# TGI values compiled below
System: HOP-62 NSCLC
ASSAY TEXT: NCI tumour cell line growth inhibition, 48 h
METRIC NAME: TGI (µM)

c1ccc2c(-c3nc4ccccc4[nH]3)cccc2c1 ... 30.3
COc1cc(C2CC(c3ccc(Nc4ccnc5cc(Cl)ccc45)cc3)=NN2C=O)cc(OC)c1OC (configuration not stated) ... 20.8
O=C(N/N=c1/ccoc2cccnc12)N1CCN(c2ncccn2)CC1 ... 7.42

----------
Test system: HL-60(TB) leukemia
ASSAY TEXT: NCI tumour cell line growth inhibition, 48 h
METRIC NAME: TGI

O=C(CC/C(CC(=O)c1ccc(Cl)cc1)=N/O)Nc1ccc(Cl)c(Cl)c1 ... > 100 µM
Cn1c(=O)c2[nH]c(C3CC(=O)CC(c4nc5c([nH]4)c(=O)n(C)c(=O)n5C)N3)nc2n(C)c1=O (stereo not given) ... > 100 µM
COc1ccc(N(C)c2nc(Cl)nc3ccn(C)c23)cc1 ... < 0.01 µM
O=C(Nc1nncs1)NS(=O)(=O)n1cnc2ccccc21 ... > 100 µM
Cc1cc(Cl)ccc1NC(=O)CC1SC(N)=NC1=O (stereo not given) ... > 100 µM

----------
Test system: SNB-19 CNS
ASSAY TEXT: NCI tumour cell line growth inhibition, 48 h
# TGI values compiled below
METRIC NAME: TGI

O=C(O)c1cncc(C(=O)O)c1 ... > 100 µM
CC(=O)NC(CCCCNC(=O)OC(C)(C)C)C(=O)O (stereo not given) ... > 100 µM
CCOC(=O)/C=C(\C(=O)OCC)n1cnc2c(N)ncnc21 ... 30 µM
CCCC(=O)/C=C/S/C=C/C(=O)CCC ... 72.3 µM
COC(=O)c1cc2c3ccccc3n3c(=O)c4cc5cc(OC)c(N(S(=O)(=O)c6ccc(C)cc6)S(=O)(=O)c6ccc(C)cc6)cc5nc4c(n1)c23 ... 32 µM
OCCCCn1cc(Cn2ncc3c(SCc4ccccc4)ncnc32)nn1 ... > 100 µM
CC1C2(C)OC(=N)C(C#N)(C(c3ccco3)O2)C1(C#N)C#N (stereo not given) ... > 100 µM
CO/N=C(\COc1ccc2c(c1)oc(=O)c1cc(OC)ccc12)c1ccc(F)cc1 ... > 100 µM
O=C1OC2c3ccccc3C(=O)C2(c2ccccc2)N1c1ccccc1 (stereo not given) ... > 200 µM
O=C(Nc1nncs1)NS(=O)(=O)n1cnc2ccccc21 ... > 100 µM
CC(C)/C(Cl)=N\OC(=O)Nc1ccc(F)c([N+](=O)[O-])c1 ... 30.6 µM
N#Cc1c(-c2ccc(Cl)cc2)c(-c2ccc(Cl)cc2)nn(CCOC(=O)CCC(=O)O)c1=O ... > 49.2 µM
CCOC(=O)C1(C(=O)OCC)CSC1 ... > 100 µM
Cc1[nH]n(-c2ccc(S(=O)(=O)O)cc2)c(=O)c1N=Nc1ccccc1 ... > 100 µM
c1ccc2c(c1)CCN1CCc3c([nH]c4ccccc34)C21 (stereo not given) ... > 100 µM
O=NNc1cnccn1 ... > 1250 µM
O=C1N(CN2CCOCC2)CN(CN2CCOCC2)C(=O)N1Cc1ccccc1 ... > 100 µM
c1nc(SSc2ncnc3nc[nH]c23)c2[nH]cnc2n1 ... > 100 µM
COP(=O)(OC)C(O)/C=C/c1ccco1 (stereo not given) ... > 100 µM
COc1cc(Nc2ncc3c(C)nc(-c4cccc(Oc5ccccc5)c4)n3n2)cc(OC)c1OC ... > 25 µM
Cc1cc(C)nc(NS(=O)(=O)c2ccc(NNC(=O)c3cccc4c(NNc5ccc(S(=O)(=O)Nc6nc(C)cc(C)n6)cc5)c5ccccc5nc34)cc2)n1 ... 72.7 µM
CCCCCCCCCCCCCCCCOC(=O)c1c(C)[nH]c(/C=C2\N=C(c3ccc[nH]3)C=C2OC)c1C ... 80.3 µM
C=C(CN(C)C)C(=O)c1cc(C)ccc1C ... 39.2 µM
Cc1cc(NCCCCNc2ccnc3cc(Cl)ccc23)nc(Nc2ccc(C(=O)N3CCCC3)cc2)n1 ... 18.1 µM
c1ccc2c(-c3nc4ccccc4[nH]3)cccc2c1 ... 40.4 µM
O=C(N/N=C/C=C/c1ccc([N+](=O)[O-])o1)c1ccc(Br)s1 ... 78.9 µM
Cc1ccc(/C=C/C(=O)c2ccc(N)cc2)c(C)c1 ... 27.8 µM
COc1cc(C2c3[nH]c4ccc(F)cc4c3C[C@H]3COC(=O)N23)cc(OC)c1O (stereo not given in full) ... > 100 µM
CCSc1nc(N2CCCCC2)c2cn[nH]c2n1 ... > 100 µM
Cc1ccc([N+](=O)[O-])cc1NC(=O)C(=O)Cc1cc(=O)oc2cc(O)ccc12 ... > 100 µM
O=Cc1[nH]c(=O)[nH]c(=O)c1CCl ... > 100 µM
O=C1/C(=C/c2ccc(Cl)cc2)CN(Cc2cn(CCNc3ccnc4cc(Cl)ccc34)nn2)C/C1=C\c1ccc(Cl)cc1 ... 1.27 µM
COc1ccc(NC(=O)COC(=O)c2cccc3c(=O)c4ccccc4[nH]c23)cc1 ... > 100 µM
Oc1ccccc1Nc1nc2ccccc2c2occc12 ... 20.3 µM
COc1cc(CNC(=O)[C@H](Cc2ccc(O)cn2)NC(C)=O)cc(OC)c1 ... > 100 µM
